target: T1, human EphA4 (Homo sapiens, UniProt P54764); experiment: Affinity of humanized antibodies by SPR (Biacore T200); format: binding; conditions: human EphA4 extracellular region-SEAP-His; KD=kd/ka
T1 construct: made in house; not restated for the human SEAP-His protein
T1 sequence (P54764 20-547): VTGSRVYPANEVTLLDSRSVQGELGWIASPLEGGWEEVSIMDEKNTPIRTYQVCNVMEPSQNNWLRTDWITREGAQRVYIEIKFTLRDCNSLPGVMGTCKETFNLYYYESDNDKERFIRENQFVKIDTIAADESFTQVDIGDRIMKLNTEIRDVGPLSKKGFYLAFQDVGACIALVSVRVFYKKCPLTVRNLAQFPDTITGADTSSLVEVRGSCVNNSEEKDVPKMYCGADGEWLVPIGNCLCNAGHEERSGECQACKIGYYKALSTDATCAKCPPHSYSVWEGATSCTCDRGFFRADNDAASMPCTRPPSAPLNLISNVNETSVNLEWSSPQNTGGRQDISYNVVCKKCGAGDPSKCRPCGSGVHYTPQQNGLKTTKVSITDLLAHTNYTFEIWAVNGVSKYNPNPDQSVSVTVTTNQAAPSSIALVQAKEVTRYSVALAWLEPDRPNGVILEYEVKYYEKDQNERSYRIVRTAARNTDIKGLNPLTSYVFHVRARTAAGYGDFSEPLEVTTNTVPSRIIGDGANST
Each record here notes measured pKd.
For clarity, pKd is expressed as the negative log10 of concentration in mol/L.

Use the examples below as a reference point.
Q: Dear colleague, I am looking for the recorded pKd of the following molecule: 93 (antibody, V domains shown, constant regions without entry; synthetic humanized antibody light chain variable region sequence; synthetic humanized antibody heavy chain variable region sequence) VL: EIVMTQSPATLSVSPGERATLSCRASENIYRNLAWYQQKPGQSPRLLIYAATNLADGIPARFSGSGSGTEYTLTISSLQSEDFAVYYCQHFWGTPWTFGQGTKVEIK VH: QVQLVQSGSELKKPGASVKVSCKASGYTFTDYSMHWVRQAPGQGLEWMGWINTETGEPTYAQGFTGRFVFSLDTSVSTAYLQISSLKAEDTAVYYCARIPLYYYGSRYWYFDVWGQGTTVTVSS
Ans: 9.11

Q: Quick check: pKd of 82 (antibody, V domains shown, constant regions without entry; synthetic humanized antibody light chain variable region sequence; synthetic humanized antibody heavy chain variable region sequence) VL: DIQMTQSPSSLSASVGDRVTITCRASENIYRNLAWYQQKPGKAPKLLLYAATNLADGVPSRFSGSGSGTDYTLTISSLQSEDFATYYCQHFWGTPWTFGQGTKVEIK VH: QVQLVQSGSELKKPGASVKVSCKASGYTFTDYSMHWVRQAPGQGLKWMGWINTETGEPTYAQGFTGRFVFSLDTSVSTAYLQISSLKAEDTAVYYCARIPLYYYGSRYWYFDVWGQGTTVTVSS ?
Ans: 8.80

Q: // query pKd value for entry 83 (antibody, V domains shown, constant regions without entry; synthetic humanized antibody light chain variable region sequence; synthetic humanized antibody heavy chain variable region sequence) VL: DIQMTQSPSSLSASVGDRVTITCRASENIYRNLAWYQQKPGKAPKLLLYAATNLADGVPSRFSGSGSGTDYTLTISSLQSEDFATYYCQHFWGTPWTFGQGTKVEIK VH: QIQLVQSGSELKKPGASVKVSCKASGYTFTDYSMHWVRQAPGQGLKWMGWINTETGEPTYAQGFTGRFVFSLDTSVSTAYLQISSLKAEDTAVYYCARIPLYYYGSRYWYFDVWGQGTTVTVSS
Ans: 8.72

Q: Given 71 (antibody, V domains shown, synthetic humanized antibody heavy chain variable region sequence; synthetic humanized antibody light chain variable region sequence) VH: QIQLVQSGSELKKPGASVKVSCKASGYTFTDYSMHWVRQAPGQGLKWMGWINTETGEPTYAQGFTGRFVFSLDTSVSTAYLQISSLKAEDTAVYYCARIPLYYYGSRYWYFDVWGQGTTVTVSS VL: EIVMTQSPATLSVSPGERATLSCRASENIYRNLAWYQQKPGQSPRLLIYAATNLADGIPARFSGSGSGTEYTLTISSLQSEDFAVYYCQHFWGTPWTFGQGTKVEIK , state its recorded pKd.
Ans: 9.09

Q: # input molecule: 160 (antibody, V domains shown, synthetic humanized antibody heavy chain variable region sequence; synthetic humanized antibody light chain variable region sequence) VH: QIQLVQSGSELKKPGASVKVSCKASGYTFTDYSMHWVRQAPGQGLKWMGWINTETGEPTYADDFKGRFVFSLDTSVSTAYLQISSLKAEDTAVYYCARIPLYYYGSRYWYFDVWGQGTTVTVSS VL: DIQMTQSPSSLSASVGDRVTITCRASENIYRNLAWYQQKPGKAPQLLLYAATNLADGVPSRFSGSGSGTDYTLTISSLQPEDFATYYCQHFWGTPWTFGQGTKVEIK ; wanted: its pKd
Ans: 8.72

Next:
Q: Entry 140 (antibody, V domains shown, synthetic humanized antibody heavy chain variable region sequence; synthetic humanized antibody light chain variable region sequence) VH: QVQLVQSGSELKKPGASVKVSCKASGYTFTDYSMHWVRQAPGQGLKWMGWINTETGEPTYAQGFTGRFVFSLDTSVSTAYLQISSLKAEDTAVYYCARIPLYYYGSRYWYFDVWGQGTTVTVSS VL: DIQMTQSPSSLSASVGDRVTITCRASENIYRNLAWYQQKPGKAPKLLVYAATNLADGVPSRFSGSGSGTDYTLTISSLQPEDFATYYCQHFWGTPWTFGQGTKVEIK has what pKd?
Ans: 8.85

Q: Given the entry 76 (antibody, V domains shown, synthetic humanized antibody heavy chain variable region sequence; synthetic humanized antibody light chain variable region sequence) VH: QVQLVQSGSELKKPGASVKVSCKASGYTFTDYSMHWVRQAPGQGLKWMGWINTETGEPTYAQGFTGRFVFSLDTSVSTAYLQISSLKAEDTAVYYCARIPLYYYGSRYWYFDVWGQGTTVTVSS VL: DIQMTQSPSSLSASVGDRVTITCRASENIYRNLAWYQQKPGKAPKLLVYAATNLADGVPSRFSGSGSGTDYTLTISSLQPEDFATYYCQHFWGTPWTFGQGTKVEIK , report its measured pKd.
Ans: 9.00
